B1: TMEM175 (parent)
chain: ALLHQAETLQPSVWFGGREHVLMF

Variants of: B1
test: protein stability index of a GFP-peptide fusion (GPS, HEK-293T) (PSI 1-6); higher = more stable;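 note: lentivirally expressed fusions sorted by FACS into six bins by GFP to DsRed ratio, PSI derived from sequencing read proportions per bin multiplied by bin number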
condition-info: c terminus: a fixed tail appended
observable: protein stability index
Answers are plain numbers.

>  <sequence-variant>
L22T

>  <protein stability index>
1.78

$$$$
>  <sequence-variant>
Q5L

>  <protein stability index>
3.8

$$$$
>  <sequence-variant>
A1I

>  <protein stability index>
3.59

$$$$
>  <sequence-variant>
T8H

>  <protein stability index>
2.95

$$$$

Each variant below has a reported value. Please supply its protein stability index.
1. F24L
2. L3P

1. 2.21
2. 1.61
